B1: FAM107A (parent)
chain: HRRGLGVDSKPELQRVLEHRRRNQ

variants of: B1; test: protein stability index of a GFP-peptide fusion (GPS, HEK-293T) (PSI 1-6); higher = more stable; conditions: c terminus: a fixed tail appended;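 also: lentivirally expressed fusions sorted by FACS into six bins by GFP to DsRed ratio, PSI derived from sequencing read proportions per bin multiplied by bin number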
ASSAY_METRIC: protein stability index
In your answer, state the number alone without any accompanying words.

q: Please indicate protein stability index recorded for P11T
a: 3.51

q: Output protein stability index of R22K
a: 4.46

q: Output protein stability index of V7Q
a: 4.95

q: Identify protein stability index associated with the variant R3G
a: 5.11

q: Quote protein stability index reported for L13G please.
a: 4.94

q: Item R15H : provide protein stability index
a: 4.25

More entries:
q: Specify protein stability index for H1N and stop.
a: 4.5

q: Write down protein stability index measured for item R22G
a: 3.64

q: Please look at this variant and report its protein stability index: H19S
a: 4.82

q: Tell me protein stability index reported for R22A
a: 4.63

q: Answer with the recorded protein stability index for the variant listed here: R22D
a: 4.62

q: Name the recorded protein stability index of the item G4C in your answer.
a: 4.02

q: Item D8P : provide protein stability index
a: 2.54

q: Tell us which protein stability index value is on record for L17C
a: 5.08

q: Give protein stability index for L17M
a: 4.14

Source: the supplement of paper PMC10567573
